# System Name: wild-type EGFR (Homo sapiens, UniProt P00533)
# Sequence (P00533 25-1210): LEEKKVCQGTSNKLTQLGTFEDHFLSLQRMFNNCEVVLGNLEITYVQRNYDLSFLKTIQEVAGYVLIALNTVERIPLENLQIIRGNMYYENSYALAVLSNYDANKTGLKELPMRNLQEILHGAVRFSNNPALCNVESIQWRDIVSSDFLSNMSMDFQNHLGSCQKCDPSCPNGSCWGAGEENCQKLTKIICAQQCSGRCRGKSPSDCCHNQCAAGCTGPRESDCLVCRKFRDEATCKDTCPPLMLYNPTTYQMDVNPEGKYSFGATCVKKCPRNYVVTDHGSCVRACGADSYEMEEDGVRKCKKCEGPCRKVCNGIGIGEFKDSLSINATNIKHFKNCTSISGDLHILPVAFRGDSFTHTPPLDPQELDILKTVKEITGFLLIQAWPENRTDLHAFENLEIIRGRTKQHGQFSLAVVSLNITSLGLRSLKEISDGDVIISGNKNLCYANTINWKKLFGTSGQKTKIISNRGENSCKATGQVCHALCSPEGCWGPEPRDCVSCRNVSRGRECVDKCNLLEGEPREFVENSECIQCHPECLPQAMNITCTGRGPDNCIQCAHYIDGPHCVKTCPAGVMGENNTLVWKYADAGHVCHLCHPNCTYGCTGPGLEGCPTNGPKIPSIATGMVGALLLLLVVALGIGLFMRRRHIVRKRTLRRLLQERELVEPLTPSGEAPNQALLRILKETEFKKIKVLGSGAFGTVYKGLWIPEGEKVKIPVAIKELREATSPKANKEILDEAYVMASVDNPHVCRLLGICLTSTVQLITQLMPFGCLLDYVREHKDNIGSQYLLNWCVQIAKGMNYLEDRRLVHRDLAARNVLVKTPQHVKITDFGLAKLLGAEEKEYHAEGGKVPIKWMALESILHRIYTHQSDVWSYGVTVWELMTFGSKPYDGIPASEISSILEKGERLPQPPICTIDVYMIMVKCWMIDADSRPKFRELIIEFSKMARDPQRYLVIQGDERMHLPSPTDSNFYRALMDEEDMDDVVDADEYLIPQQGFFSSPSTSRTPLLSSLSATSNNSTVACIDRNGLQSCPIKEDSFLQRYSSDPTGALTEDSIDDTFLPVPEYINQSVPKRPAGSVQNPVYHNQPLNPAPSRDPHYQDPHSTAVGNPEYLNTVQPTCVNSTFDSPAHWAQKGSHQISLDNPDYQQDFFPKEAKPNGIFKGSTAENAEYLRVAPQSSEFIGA
# Test Method Notes: EGFR kinase assay (ELISA)
# Assay Context: 0.3 nM; duplicate wells, calculated from A450
What inhibition at 0.0003 µM was measured for each of the following?
Answers are plain numbers, in %.

Use the examples below as a reference point.
COCCOc1cc2ncnc(Nc3cccc(-c4cn(-c5ccccc5Cl)nn4)c3)c2cc1OCCOC [e8] = 14.4
COCCOc1cc2ncnc(Nc3cccc(-c4cn(-c5ccc(F)cc5)nn4)c3)c2cc1OCCOC [e7] = 6.05
COCCOc1cc2ncnc(Nc3cccc(-c4cn(-c5ccccc5Br)nn4)c3)c2cc1OCCOC [e9] = 0.816

Shift focus to the following entry.
Which inhibition at 0.0003 µM reading was recorded for the compound COCCOc1cc2ncnc(Nc3cccc(-c4cn(-c5ccccc5F)nn4)c3)c2cc1OCCOC [e6] ?
17.1

----------
# System Name: wild-type EGFR (Homo sapiens, UniProt P00533)
# Test Method Notes: EGFR kinase assay (ELISA)
# Assay Context: concentration 0.3 nM; one value per replicate column
Parameter Measured: inhibition at 0.0003 µM (%)
Give bare numbers, in %.

COCCOc1cc2ncnc(Nc3cccc(-c4cn(-c5ccc(OC)cc5OC)nn4)c3)c2cc1OCCOC = 14.2
COCCOc1cc2ncnc(Nc3cccc(-c4cn(Cc5ccccc5Br)nn4)c3)c2cc1OCCOC = 17.6
COCCOc1cc2ncnc(Nc3cccc(-c4cn(-c5ccc(OC)c(OC)c5)nn4)c3)c2cc1OCCOC = 1.06

Tell me reported inhibition at 0.0003 µM for COCCOc1cc2ncnc(Nc3cccc(-c4cn(-c5ccc(C)cc5)nn4)c3)c2cc1OCCOC , tested with wild-type EGFR (Homo sapiens, UniProt P00533).
9.04

----------
# System Name: UniProtKB P00533
# Test Method Notes: EGFR kinase assay (ELISA)
# Assay Context: concentration 30 nM; one value per replicate column
Classify as follows. Reported inhibition at 0.03 µM greater than or equal to 20%: Satisfied. Reported inhibition at 0.03 µM below: Not satisfied.

Previously resolved entries follow.
COCCOc1cc2ncnc(Nc3cccc(-c4cn(-c5ccccc5C(F)(F)F)nn4)c3)c2cc1OCCOC [e16] = Satisfied
COCCOc1cc2ncnc(Nc3cccc(-c4cn(-c5ccc(C)cc5O)nn4)c3)c2cc1OCCOC [e18] = Satisfied
COCCOc1cc2ncnc(Nc3cccc(-c4cn(Cc5cc(Br)cc(Br)c5)nn4)c3)c2cc1OCCOC [e4] = Not satisfied

Given COCCOc1cc2ncnc(Nc3cccc(-c4cn(CCc5ccccc5)nn4)c3)c2cc1OCCOC [e20] , state whether its inhibition at 0.03 µM is at least 20%.
Satisfied

Given COCCOc1cc2ncnc(Nc3cccc(-c4cn(-c5ccc(C)cc5)nn4)c3)c2cc1OCCOC [e12] , state whether its inhibition at 0.03 µM is at least 20%.
Not satisfied

Given COCCOc1cc2ncnc(Nc3cccc(-c4cn(Cc5ccccc5I)nn4)c3)c2cc1OCCOC [e2] , state whether its inhibition at 0.03 µM is at least 20%.
Satisfied

----------
# System: H1975 cells
# Test Method Notes: CCK-8 antiproliferation assay, H1975
# Assay Context: Homo sapiens, NCI-H1975, read-out: Inhibitory efficacy, H1975 cells; 2uM; given as fraction; Repeat 1-3
Parameter Measured: inhibition at 2 µM (%)
Answers are plain numbers, in %.

// each compound listed below needs its inhibition at 2 µM
1. COCCOc1cc2ncnc(Nc3cccc(-c4cn(-c5ccc(Br)cc5)nn4)c3)c2cc1OCCOC
2. COCCOc1cc2ncnc(Nc3cccc(-c4cn(-c5cccc([N+](=O)[O-])c5)nn4)c3)c2cc1OCCOC
3. COCCOc1cc2ncnc(Nc3cccc(-c4cn(-c5ccc(OC)cc5OC)nn4)c3)c2cc1OCCOC

1. 33.8
2. 25.5
3. 33.3

// each compound listed below needs its inhibition at 2 µM
1. CCOc1cccc(-n2cc(-c3cccc(Nc4ncnc5cc(OCCOC)c(OCCOC)cc45)c3)nn2)c1
2. C#Cc1cccc(Nc2ncnc3cc(OCCOC)c(OCCOC)cc23)c1 [Erlotinib, reference compound]

1. 28.4
2. 20.1

// each compound listed below needs its inhibition at 2 µM
1. COCCOc1cc2ncnc(Nc3cccc(-c4cn(-c5ccc(C)cc5)nn4)c3)c2cc1OCCOC
2. COCCOc1cc2ncnc(Nc3cccc(-c4cn(-c5ccccc5Cl)nn4)c3)c2cc1OCCOC
3. COCCOc1cc2ncnc(Nc3cccc(-c4cn(-c5ccc(F)cc5)nn4)c3)c2cc1OCCOC

[28.9, 19.8, 29.3]
